- assay info: Quantitative High-Throughput drug screen in 47 multiple myeloma cell lines against the NCATS MIPE library collection: MMM1_PLB cell viability assay (AID 1918976); further: potency means the concentration at half of the fitted maximal effect; nearly all actives have a fitted effect of over 35% in size
- assay setup: MMM1 myeloma cells viability, CellTiter-Glo, 48 h; series mostly up to 45.8 µM
Results filed as inconclusive are left out. Active and inactive are the calls of the source. The call rests on the fitted dose curve; in most records, active means well fitted cell-killing curve with a large enough effect; inconclusive means small, poorly fitted or top-dose-only effect, or effect the other way; inactive means no such curve, though single readings can be large or run the other way.
observed property: Potency

{"compound": "O=C1C(Cl)=C(NCCN2CCOCC2)C(=O)c2ncccc21", "observed property": "Potency", "readout value": "2.96 µM (active)"}

Q: Please look at this compound and report its Potency: CC(C)[C@H](CO)Nc1nc(Nc2ccc(C(=O)O)c(Cl)c2)c2ncn(C(C)C)c2n1
A: 23.5 µM (active)

Q: Please look at this compound and report its Potency: COc1cc(Nc2ncc(F)c(Nc3ccc4c(n3)NC(=O)C(C)(C)O4)n2)cc(OC)c1OC
A: 1.48 µM (active)

Q: Please look at this compound and report its Potency: O=C1c2c(O)cc(O)cc2O[C@H](c2cc(O)c(O)c(O)c2)[C@H]1O
A: 10.5 µM (active)

Q: Please look at this compound and report its Potency: CC[C@@]1(O)C[C@H](O[C@H]2C[C@H](N(C)C)[C@H](O[C@H]3C[C@H](O)[C@H](O[C@H]4CCC(=O)[C@H](C)O4)[C@H](C)O3)[C@H](C)O2)c2c(cc3c(c2O)C(=O)c2c(O)cccc2C3=O)[C@@H]1C(=O)OC
A: 0.296 µM (active)

Q: Please look at this compound and report its Potency: CS(=O)(=O)N(Cc1ccco1)CC(O)Cn1c2ccccc2c2ccccc21 (stereo not given)
A: 20.9 µM (active)

Q: Please look at this compound and report its Potency: C[C@H](NC(=O)c1sccc1OCc1ccc(Cl)cc1)c1ccccc1
A: 16.6 µM (active)

Q: Please look at this compound and report its Potency: N#C[C@H]1C[C@H]2C[C@@H]2N1C(=O)[C@@H](N)C12CC3CC(CC(O)(C3)C1)C2
A: 1.48 µM (active)

Q: Please look at this compound and report its Potency: CCOC(=O)C1=C(N)Oc2ccc(Br)cc2C1C(C#N)C(=O)OCC (stereo not given)
A: 20.9 µM (active)

Q: Please look at this compound and report its Potency: OC[C@H]1O[C@@H](n2cnc3c2NC=NC[C@@H]3O)C[C@H]1O
A: 20.9 µM (active)

---

- assay info: qHTS of pediatric cancer cell lines to identify multiple opportunities for drug repurposing: Primary screen for SK-N-MC cells (AID 1347093)
- assay setup: SK-N-MC viability, CellTiter-Glo luminescence, 48 h; series mostly up to 46 µM
Records with an inconclusive call do not appear. Calls of active or inactive are those of the source. Calls follow the shape of the dose curve; as a rule, active = well fitted cell-killing curve with a large enough effect; inconclusive = small, poorly fitted or top-dose-only effect; inactive = no such curve, though single readings can be large or run the other way.
The categories you may choose from are active, inactive

See these solved cases before continuing.
{"compound": "CN1C[C@H]2c3ccccc3Oc3ccc(Cl)cc3[C@@H]2C1", "assigned class": "inactive"}
{"compound": "CS(=O)c1ccc(-c2nc(-c3ccc(F)cc3)c(-c3ccncc3)[nH]2)cc1 (stereo not drawn)", "assigned class": "active"}

Consider now this further compound.
Q: Hey, what did the test say about C[N+](C)(C)CC(=O)O ?
A: active

---

- assay info: NS1 protein of Zika virus - qHTS assay to identify small molecule inhibitors in human HEK 293 cells (AID 1347053); further: nearly all actives have a fitted effect of over 55% in size
- assay setup: HEK293 ZIKV MR766 infection, NS1 TR-FRET, 24 h; series mostly up to 46.1 µM
- Excerpt: National Center for Advancing Translational Sciences [NCATS] Johns Hopkins University School of Medicine The non-structural 1 (NS1) protein of zika virus is known to associate with the viral replication complex. This cell-based TR-FRET ZIKV NS-1 assay measures the increased NS-1 protein in human HEK 293 cells after a 24-hour Zika virus infection by a TR-FRET assay readout. […]
Records with an inconclusive call do not appear. Activity calls are given as the source filed them. Calls follow the shape of the dose curve; as a rule, active = well fitted inhibition curve with a large enough effect; inconclusive = small, poorly fitted or top-dose-only effect; inactive = no such curve, though single readings can be large or run the other way.
The categories you may choose from are active, inactive

See these solved cases before continuing.
{"compound": "O=C(OCC#CCSc1nnc(-c2cccc3ccccc23)o1)c1cc2ccccc2s1", "assigned class": "inactive"}
{"compound": "Clc1ccc(C(c2ccc(Cl)cc2)n2cc[n+](CC(OCc3ccc(Cl)cc3Cl)c3ccc(Cl)cc3Cl)c2)cc1 (stereo not given)", "assigned class": "active"}
{"compound": "CC(C)(C)NC(=O)Nc1cccc(Nc2ncc(F)c(NC(C)(C)CO)n2)c1", "assigned class": "inactive"}

Q: Hey, what did the test say about COc1ccc2cccc(CCNC(C)=O)c2c1 ?
A: inactive

Q: Hey, what did the test say about CC(C)(C(=O)NCC(F)(F)C(F)(F)F)C(=O)N[C@@H]1C(=O)Nc2ccccc2-c2ccccc21 ?
A: inactive

Q: Hey, what did the test say about O=C1NCC2(CCN(CCc3ccccc3)CC2)O1 ?
A: inactive

Q: Hey, what did the test say about O=c1c(O)c(-c2ccc(O)cc2)oc2cc(O)cc(O)c12 ?
A: inactive

Q: Hey, what did the test say about CCN1CCC[C@H]1CNC(=O)c1cc(S(N)(=O)=O)ccc1OC ?
A: inactive

Q: Hey, what did the test say about COCCOC(=O)C1=C(C)NC2=C(C(=O)CC(c3ccccc3OC)C2)C1c1cccc(O)c1 (stereo not given) ?
A: inactive

Q: Hey, what did the test say about NC(=O)NN=Cc1ccc([N+](=O)[O-])o1 ?
A: inactive
